# system: Gastricsin (Homo sapiens)
# Sequence (P20142 whole entry): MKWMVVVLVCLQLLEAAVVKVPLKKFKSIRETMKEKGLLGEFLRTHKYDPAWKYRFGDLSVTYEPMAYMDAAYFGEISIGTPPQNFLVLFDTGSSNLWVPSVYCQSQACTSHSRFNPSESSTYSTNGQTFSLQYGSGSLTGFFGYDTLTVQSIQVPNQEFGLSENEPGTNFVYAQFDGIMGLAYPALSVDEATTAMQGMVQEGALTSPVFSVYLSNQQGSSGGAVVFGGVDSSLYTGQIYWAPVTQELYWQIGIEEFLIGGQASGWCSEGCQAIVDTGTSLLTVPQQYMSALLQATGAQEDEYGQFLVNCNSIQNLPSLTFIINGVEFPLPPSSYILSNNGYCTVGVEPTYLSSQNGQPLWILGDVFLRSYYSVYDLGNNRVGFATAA
# assayExplanation: Inhibition of human recombinant pepsinogen C expressed in Escherichia coli using fluorescence-quenched Dabcyl-E-R-Nle-F-L-S-F-P-EDANS substrate by fluorimetric assay
pIC50: −log10 of the molar value.
metric: pIC50

Problem: Which value of pIC50 has been reported for CCOC[C@@H](CC(C)C)NC(=O)[C@@H]1CNC[C@H](C(=O)N(c2ccc(C(C)C)cn2)C2CC2)[C@@H]1O in the records?
Result: < 4.52

---

# system: Renin (Homo sapiens, UniProt P00797)
# Sequence (P00797 whole entry): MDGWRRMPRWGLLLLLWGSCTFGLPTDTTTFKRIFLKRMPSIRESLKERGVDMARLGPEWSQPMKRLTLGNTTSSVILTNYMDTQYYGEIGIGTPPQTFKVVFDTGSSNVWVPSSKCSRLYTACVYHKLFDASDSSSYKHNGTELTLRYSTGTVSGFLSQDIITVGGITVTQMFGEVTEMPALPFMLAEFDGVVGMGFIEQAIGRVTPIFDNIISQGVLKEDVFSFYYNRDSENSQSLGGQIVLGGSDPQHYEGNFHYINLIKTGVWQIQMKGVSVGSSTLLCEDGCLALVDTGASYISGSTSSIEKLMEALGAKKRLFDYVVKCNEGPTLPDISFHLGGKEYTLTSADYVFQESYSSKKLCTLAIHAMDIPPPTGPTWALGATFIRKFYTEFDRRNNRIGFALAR
# assayExplanation: Inhibition of human recombinant renin in presence of human plasma using Ac- IHPFHL-VIHNK-(DY-505-X5)-COOH substrate by fluorimetric assay
Entries whose IC50 is below 2 nM take t; entries at or above 2 nM take f.

compound="COCCCn1cc(CN(C(=O)[C@H]2CNC[C@@H](C(=O)NCC(C)C)C2)C2CC2)c2ccccc21 (racemic)" categorylabel=f
compound=CCOC[C@@H](CC(C)C)NC(=O)[C@@H]1CNC[C@H](C(=O)N(c2ccc(C(C)C)cn2)C2CC2)[C@@H]1O categorylabel=t
compound=CCOC[C@@H](CC(C)C)NC(=O)[C@@H]1CNC[C@H](C(=O)N(c2cc(OCCCOC)c(C(C)C)cn2)C2CC2)C1.Cl categorylabel=t
compound=CCOC[C@@H](CC(C)C)NC(=O)[C@@H]1CNC[C@H](C(=O)N(c2cc(OCC)c(CC)cn2)C2CC2)[C@@H]1O categorylabel=f
compound="Cc1ccc(S(=O)(=O)N[C@@H]2CNC[C@H](C(=O)NC(c3ccccc3)c3ccccc3)C2)cc1 (racemic)" categorylabel=f

Problem: Given CCOC[C@@H](CC(C)C)NC(=O)[C@@H]1CNC[C@H](C(=O)N(c2ccc(C(C)C)cc2)C2CC2)C1 , is recorded IC50 strictly lower than 2 nM?
Result: f

---

Below, each entry is listed with its recorded IC50.
# system: Renin (Homo sapiens, UniProt P00797)
# assayExplanation: Inhibition of human recombinant renin in presence of human plasma using Ac- IHPFHL-VIHNK-(DY-505-X5)-COOH substrate by fluorimetric assay
Note: unit nM is implicit; provide only the numeric part.

testsmiles=CCOC[C@@H](CC(C)C)NC(=O)[C@@H]1CNC[C@H](C(=O)N(c2cc(OC)c(C(C)C)cn2)C2CC2)[C@@H]1O metric=IC50 recordedmeasurement=2
testsmiles=CCOC[C@@H](CC(C)C)NC(=O)[C@@H]1CNC[C@H](C(=O)N(c2cc(OCCCOC)c(C(C)C)cc2F)C2CC2)C1 metric=IC50 recordedmeasurement=2
testsmiles=CCOC[C@@H](CC(C)C)NC(=O)[C@@H]1CNC[C@H](C(=O)N(c2cc(OC)c(C(C)C)cn2)C2CC2)C1 metric=IC50 recordedmeasurement=0.4

Pending compound:
Problem: Which value of IC50 has been reported for COCCCn1cc(CN(C(=O)[C@H]2CNC[C@@H](C(=O)N[C@@H](CO)CC(C)C)C2)C2CC2)c2ccccc21 in the records?
Result: 8

---

# assayExplanation: Clearance in human liver microsomes
# Type: ADME
# assaySetup: read-out: CLH
metric: log10(microsomal CLint) (log10 of the value in µL/min/mg)
// stored as log10 of microsomal CLint expressed in µL/min/mg

Example results:
testsmiles=CCOC[C@@H](CC(C)C)NC(=O)[C@@H]1CNC[C@H](C(=O)N(c2cc3c(cc2F)OC(C)(C)C(=O)N3CCCOC)C2CC2)C1.Cl metric="log10(microsomal CLint)" recordedmeasurement=1.79
testsmiles=COCCCn1cc(CN(C(=O)[C@H]2CNC[C@@H](C(=O)N[C@H](CCO)c3ccccc3)C2)C2CC2)c2ccccc21 metric="log10(microsomal CLint)" recordedmeasurement=2.24
testsmiles=CCOC[C@@H](CC(C)C)NC(=O)[C@@H]1CNC[C@H](C(=O)N(c2cc(OCCCOC)c(C(C)C)cc2F)C2CC2)C1 metric="log10(microsomal CLint)" recordedmeasurement=2.06
testsmiles=CCOC[C@@H](CC(C)C)NC(=O)[C@@H]1CNC[C@H](C(=O)N(c2ccc(C(C)C)c(OCCCOC)n2)C2CC2)C1 metric="log10(microsomal CLint)" recordedmeasurement=2.46

Problem: Which value of log10(microsomal CLint) has been reported for CCOC[C@@H](CC(C)C)NC(=O)[C@@H]1CNC[C@H](C(=O)N(c2cc(OC)c(C(C)C)cn2)C2CC2)C1 in the records?
Result: 1.18

Problem: Okay, and CCOC[C@@H](CC(C)C)NC(=O)[C@@H]1CNC[C@H](C(=O)N(c2cc(OC)c(C(C)C)cn2)C2CC2)[C@@H]1O ?
Result: 1.34

---

# assayExplanation: Solubility in water at pH 1 to 9
# Type: physicochemical
metric: solubility

Problem: Which value of solubility has been reported for CCOC[C@@H](CC(C)C)NC(=O)[C@@H]1CNC[C@H](C(=O)N(c2ccc(C(C)C)cn2)C2CC2)[C@@H]1O in the records?
Result: > 10000 µg/mL

---

Record set of pIC50 for target or system UniProtKB Q12809.
Sequence (Q12809 whole entry): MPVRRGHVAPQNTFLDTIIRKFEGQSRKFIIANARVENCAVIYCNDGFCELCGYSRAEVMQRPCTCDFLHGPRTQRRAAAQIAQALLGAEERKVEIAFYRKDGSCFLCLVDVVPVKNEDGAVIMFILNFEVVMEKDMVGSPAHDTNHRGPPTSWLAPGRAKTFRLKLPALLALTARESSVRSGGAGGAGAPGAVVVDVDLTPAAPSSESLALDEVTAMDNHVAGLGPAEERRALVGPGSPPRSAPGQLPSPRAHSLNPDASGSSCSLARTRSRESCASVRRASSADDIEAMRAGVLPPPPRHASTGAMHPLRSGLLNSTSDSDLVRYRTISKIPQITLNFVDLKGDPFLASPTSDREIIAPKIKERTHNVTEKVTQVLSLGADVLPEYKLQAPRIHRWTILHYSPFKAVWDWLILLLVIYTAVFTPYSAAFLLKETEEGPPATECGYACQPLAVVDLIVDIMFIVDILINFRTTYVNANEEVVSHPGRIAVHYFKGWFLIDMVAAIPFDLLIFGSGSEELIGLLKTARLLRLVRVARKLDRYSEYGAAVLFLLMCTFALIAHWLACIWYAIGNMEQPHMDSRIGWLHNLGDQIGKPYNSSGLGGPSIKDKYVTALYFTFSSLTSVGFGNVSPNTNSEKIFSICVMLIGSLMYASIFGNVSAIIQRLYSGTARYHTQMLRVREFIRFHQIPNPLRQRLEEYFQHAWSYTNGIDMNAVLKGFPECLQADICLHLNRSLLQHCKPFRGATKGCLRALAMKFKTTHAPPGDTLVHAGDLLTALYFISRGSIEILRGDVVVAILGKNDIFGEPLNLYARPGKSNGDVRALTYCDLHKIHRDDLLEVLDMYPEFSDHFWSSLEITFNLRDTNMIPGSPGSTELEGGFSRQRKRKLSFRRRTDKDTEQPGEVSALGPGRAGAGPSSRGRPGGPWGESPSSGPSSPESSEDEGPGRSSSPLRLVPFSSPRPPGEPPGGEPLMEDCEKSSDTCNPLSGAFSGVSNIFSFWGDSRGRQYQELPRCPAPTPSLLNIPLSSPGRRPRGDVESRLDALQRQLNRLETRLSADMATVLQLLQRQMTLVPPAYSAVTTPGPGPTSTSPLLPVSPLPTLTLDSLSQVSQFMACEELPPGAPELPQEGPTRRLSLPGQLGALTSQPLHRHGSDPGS
// pIC50 is dimensionless: -log10 of concentration (M)

testsmiles=CCOC[C@@H](CC(C)C)NC(=O)[C@@H]1CNC[C@H](C(=O)N(c2ccc(C(C)C)cn2)C2CC2)C1 recordedmeasurement=5.15

Problem: Which value of pIC50 has been reported for CCOC[C@@H](CC(C)C)NC(=O)[C@@H]1CNC[C@H](C(=O)N(c2ccc(C(C)C)c(OCCCOC)n2)C2CC2)C1 in the records?
Result: 5.48

---

# system: Renin (Homo sapiens, UniProt P00797)
# assayExplanation: Inhibition of human recombinant renin in presence of human plasma using Ac- IHPFHL-VIHNK-(DY-505-X5)-COOH substrate by fluorimetric assay
Below, each entry is listed with its recorded IC50.
Note: unit nM is implicit; provide only the numeric part.

Example results:
testsmiles=CCOC[C@@H](CC(C)C)NC(=O)[C@@H]1CNC[C@H](C(=O)N(c2ccc(C(C)C)cn2)C2CC2)C1 system="Renin (Homo sapiens, UniProt P00797)" metric=IC50 recordedmeasurement=1.1
testsmiles=COCCCn1cc(CN(C(=O)[C@H]2CNC[C@@H](C(=O)NCCC(C)C)C2)C2CC2)c2ccccc21 system="Renin (Homo sapiens, UniProt P00797)" metric=IC50 recordedmeasurement=40
testsmiles=COCCCn1cc(CN(C(=O)[C@H]2CNC[C@@H](C(=O)N[C@H](CCO)c3ccccc3)C2)C2CC2)c2ccccc21 system="Renin (Homo sapiens, UniProt P00797)" metric=IC50 recordedmeasurement=1

Pending molecule:
Problem: Which value of IC50 has been reported for CCOC[C@@H](CC(C)C)NC(=O)[C@@H]1CNC[C@H](C(=O)N(c2ccc(C(C)C)c(OCCCOC)n2)C2CC2)C1 in the records?
Result: 6

---

# system: Beta-secretase 1 (Homo sapiens, UniProt P56817)
# Sequence (P56817 whole entry): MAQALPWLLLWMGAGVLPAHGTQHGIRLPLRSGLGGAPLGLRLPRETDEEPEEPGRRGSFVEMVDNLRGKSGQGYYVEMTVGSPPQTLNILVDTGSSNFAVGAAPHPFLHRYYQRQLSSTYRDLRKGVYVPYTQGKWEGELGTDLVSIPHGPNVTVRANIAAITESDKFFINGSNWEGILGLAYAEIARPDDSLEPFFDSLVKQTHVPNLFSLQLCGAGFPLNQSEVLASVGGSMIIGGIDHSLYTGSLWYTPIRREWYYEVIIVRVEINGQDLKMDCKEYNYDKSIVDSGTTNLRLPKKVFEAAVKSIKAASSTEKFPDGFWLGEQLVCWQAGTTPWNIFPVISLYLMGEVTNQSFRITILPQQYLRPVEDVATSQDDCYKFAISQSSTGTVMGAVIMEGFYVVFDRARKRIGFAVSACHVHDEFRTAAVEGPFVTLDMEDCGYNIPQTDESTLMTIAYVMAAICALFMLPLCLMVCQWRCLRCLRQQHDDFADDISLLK
# assayExplanation: Inhibition of human recombinant BACE1 expressed in SF9 cells using fluorescence-quenched RE(EDANS)-EVNLDAEF-K(DABSYL)-R substrate by fluorimetric assay
pIC50: −log10 of the molar value.
metric: pIC50

Problem: Which value of pIC50 has been reported for CCOC[C@@H](CC(C)C)NC(=O)[C@@H]1CNC[C@H](C(=O)N(c2ccc(C(C)C)cn2)C2CC2)[C@@H]1O in the records?
Result: < 4.52
